# Tested target: S1PR1 (Homo sapiens)
# Construct: host or cells: CHO-K1 (PathHunter eXpress β-Arrestin GPCR cells)
# Sequence (P21453 whole entry): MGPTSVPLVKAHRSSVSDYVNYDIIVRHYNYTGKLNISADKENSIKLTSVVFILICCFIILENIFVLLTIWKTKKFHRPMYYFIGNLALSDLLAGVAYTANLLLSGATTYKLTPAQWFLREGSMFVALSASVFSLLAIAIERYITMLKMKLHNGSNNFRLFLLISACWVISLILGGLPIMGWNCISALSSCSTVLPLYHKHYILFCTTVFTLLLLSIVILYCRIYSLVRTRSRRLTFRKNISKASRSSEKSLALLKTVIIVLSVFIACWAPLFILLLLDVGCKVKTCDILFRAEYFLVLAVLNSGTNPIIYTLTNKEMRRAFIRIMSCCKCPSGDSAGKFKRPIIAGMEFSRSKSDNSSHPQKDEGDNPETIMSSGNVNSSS
# Method description: β-arrestin recruitment assay (PathHunter CHO-K1), S1PR1
# Assay type: cell-based
# Assay setup: agonism
Measure: EC50 (nM)
Express your answer in nM, writing the number without its unit.

Item: CCCCCCCCCCCCC/C=C/[C@@H](O)[C@@H](N)COP(=O)(O)O [Compound S1P, sphingosine-1-phosphate] | System: S1PR1 (Homo sapiens) | EC50: 16.3
